Target: Plasma kallikrein (Homo sapiens) (UniProt P03952)
Sequence (P03952 20-390 limits assumed): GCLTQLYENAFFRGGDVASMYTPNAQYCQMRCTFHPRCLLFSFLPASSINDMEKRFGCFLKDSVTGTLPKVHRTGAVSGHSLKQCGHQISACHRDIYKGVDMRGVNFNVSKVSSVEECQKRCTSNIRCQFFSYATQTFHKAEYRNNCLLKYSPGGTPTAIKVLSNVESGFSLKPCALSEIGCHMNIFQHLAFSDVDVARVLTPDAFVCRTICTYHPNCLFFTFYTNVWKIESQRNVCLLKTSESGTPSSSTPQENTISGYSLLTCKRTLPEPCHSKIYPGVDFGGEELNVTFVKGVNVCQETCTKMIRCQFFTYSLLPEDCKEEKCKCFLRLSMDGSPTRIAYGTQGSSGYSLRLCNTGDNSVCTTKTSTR
Sequence (P03952 391-638 limits assumed): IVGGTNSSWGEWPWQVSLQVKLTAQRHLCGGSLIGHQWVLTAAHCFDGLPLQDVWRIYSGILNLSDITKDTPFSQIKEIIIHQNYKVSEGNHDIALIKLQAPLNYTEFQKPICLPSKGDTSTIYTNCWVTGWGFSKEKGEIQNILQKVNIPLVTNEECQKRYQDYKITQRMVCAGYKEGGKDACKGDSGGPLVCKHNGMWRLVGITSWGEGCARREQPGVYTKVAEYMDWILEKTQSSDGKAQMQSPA
Experiment: Inhibition of Kallikrein in human plasma at 500 uM by chromogenic substrate hydrolysis assay
Assay type: cell-free
The source made the active and inactive calls. No cut-off for these calls is given here.

[
  {
    "Mol": "O=c1c(OS(=O)(=O)O)c(-c2ccc(OS(=O)(=O)O)c(OS(=O)(=O)O)c2)oc2cc(OS(=O)(=O)O)cc(OCc3cn(CCCCCCCCCCn4c(-c5ccc(OS(=O)(=O)O)cc5)nc5ccccc5c4=O)nn3)c12",
    "inhibition": "inactive"
  },
  {
    "Mol": "O=c1c(OS(=O)(=O)O)c(-c2ccc(OS(=O)(=O)O)c(OS(=O)(=O)O)c2)oc2cc(OS(=O)(=O)O)cc(OCc3cn(CCCCCCCCCn4c(-c5ccc(OS(=O)(=O)O)cc5)nc5ccccc5c4=O)nn3)c12",
    "inhibition": "inactive"
  },
  {
    "Mol": "O=c1c2ccccc2nc(-c2cccc(OS(=O)(=O)O)c2)n1Cc1ccccc1Cn1c(-c2cccc(OS(=O)(=O)O)c2)nc2ccccc2c1=O",
    "inhibition": "inactive"
  }
]
